These measurements were taken from patent US9546164B2.

Recorded pIC50 by entry
targetSystem: hNav1.7 (Homo sapiens (Human), UniProt Q15858)
Sequence (Q15858 other isoform, or with tags, fused parts or gaps): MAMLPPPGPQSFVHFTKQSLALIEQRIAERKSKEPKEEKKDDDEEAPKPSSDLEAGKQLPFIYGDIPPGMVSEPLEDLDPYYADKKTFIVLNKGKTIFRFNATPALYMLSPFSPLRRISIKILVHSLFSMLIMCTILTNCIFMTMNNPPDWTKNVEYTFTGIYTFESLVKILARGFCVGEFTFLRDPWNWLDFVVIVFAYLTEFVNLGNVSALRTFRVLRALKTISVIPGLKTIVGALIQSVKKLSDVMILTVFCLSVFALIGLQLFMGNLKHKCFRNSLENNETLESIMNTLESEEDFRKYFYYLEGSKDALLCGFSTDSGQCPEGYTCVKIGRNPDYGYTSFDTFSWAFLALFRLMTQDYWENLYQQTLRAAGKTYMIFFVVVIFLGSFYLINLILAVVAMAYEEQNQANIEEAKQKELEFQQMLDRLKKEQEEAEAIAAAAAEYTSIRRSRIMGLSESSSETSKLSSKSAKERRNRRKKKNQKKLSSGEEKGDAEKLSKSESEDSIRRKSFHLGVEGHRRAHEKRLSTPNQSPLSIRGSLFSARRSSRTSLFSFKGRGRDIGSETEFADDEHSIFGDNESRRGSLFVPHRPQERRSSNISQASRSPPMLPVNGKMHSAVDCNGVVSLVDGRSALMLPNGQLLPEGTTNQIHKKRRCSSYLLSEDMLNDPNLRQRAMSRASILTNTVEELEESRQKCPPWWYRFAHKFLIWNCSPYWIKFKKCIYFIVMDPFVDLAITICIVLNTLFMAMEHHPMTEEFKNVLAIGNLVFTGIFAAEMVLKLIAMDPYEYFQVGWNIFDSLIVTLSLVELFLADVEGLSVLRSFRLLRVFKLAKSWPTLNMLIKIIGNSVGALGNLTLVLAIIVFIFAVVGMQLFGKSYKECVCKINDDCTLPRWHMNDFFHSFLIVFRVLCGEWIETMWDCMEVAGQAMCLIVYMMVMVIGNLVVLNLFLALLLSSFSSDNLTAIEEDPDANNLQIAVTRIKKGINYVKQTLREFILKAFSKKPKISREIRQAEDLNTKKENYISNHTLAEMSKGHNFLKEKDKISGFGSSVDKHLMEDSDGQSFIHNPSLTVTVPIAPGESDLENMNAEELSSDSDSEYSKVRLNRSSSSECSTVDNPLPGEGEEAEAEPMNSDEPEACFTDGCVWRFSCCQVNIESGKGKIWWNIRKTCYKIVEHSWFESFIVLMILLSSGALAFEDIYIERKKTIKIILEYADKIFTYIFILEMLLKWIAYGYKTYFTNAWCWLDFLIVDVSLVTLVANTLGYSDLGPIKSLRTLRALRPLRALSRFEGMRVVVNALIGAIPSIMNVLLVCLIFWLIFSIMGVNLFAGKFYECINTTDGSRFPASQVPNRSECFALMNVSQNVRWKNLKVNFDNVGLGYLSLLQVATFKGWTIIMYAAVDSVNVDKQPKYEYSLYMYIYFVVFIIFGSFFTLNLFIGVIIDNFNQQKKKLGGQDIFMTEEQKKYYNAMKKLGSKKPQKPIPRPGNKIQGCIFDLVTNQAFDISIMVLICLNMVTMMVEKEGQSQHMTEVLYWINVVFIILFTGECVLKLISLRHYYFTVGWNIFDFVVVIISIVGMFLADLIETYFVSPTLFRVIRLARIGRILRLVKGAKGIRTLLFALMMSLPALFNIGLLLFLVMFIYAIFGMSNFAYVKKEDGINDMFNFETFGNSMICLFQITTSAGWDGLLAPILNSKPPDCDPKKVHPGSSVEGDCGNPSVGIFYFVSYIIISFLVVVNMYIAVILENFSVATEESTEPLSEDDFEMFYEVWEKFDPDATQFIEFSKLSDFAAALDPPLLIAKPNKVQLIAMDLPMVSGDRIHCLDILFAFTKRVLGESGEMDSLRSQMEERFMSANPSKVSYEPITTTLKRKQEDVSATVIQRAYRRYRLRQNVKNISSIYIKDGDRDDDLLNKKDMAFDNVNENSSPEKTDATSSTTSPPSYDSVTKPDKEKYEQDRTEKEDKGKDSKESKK
Sequence (Q07699 19-218 partner): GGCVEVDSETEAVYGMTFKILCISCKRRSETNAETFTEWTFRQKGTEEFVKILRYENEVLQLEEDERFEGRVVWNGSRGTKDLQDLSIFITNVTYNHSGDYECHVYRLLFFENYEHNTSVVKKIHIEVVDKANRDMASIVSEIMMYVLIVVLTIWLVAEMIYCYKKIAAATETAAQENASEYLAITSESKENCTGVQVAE
assayInfo: Tritiated sulfonamide competitive binding to membranes from cells expressing hNav1.7 and the β1 subunit;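 note: Filter-bound radioactivity counted by liquid scintillation, nonspecific binding defined with excess unlabelled ligand, IC50 fitted to percent inhibition of specific binding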
measurementParameters: read-out: Ligand Binding Assay; 100 pM [3H]compound, membranes with hNav1.7 and β1 subunit, 18 h, room temperature
pIC50: −log10 of the molar value. Where a name gives a salt, the structure may show the parent alone.

# molecule, targetSystem, pIC50
records = [
    ("O=C(NS(=O)(=O)N1CCC1)c1cc(C2CC2)c(CN2CCO[C@H](Cc3ccc(Cl)c(Cl)c3)C2)cc1F", "hNav1.7 (Homo sapiens (Human), UniProt Q15858)", 7.90),
    ("CS(=O)(=O)NC(=O)c1cc(C2CC2)c(OCC2CN(C(c3ccccc3)c3cccc(F)c3)C2)cc1F (stereo not drawn)", "hNav1.7 (Homo sapiens (Human), UniProt Q15858)", 8.04),
    ("O=C(NS(=O)(=O)C1CC1)c1cc(C2CC2)c(CN2[C@@H]3CC[C@H]2C[C@@H](Oc2cc(C(F)(F)F)c(Cl)cn2)C3)cc1F [Example 551, trifluoroacetic acid salt]", "hNav1.7 (Homo sapiens (Human), UniProt Q15858)", 8.12),
    ("CC(c1cc(Cl)cc(Cl)c1)N1CCC(COc2cc(F)c(C(=O)NS(C)(=O)=O)cc2C2CC2)CC1 (stereo not drawn)", "hNav1.7 (Homo sapiens (Human), UniProt Q15858)", 8.57),
    ("CS(=O)(=O)NC(=O)c1cc(C2CC2)c(OCC2CCN(C(=O)c3ccc(Cl)cc3Cl)CC2)cc1F", "hNav1.7 (Homo sapiens (Human), UniProt Q15858)", 6.57),
    ("O=C(NS(=O)(=O)N1CCC1)c1cc(C2CC2)c(CN2CCC[C@H](Oc3cc(Cl)cc(Cl)c3)C2)cc1F [Example 54, acetic acid salt]", "hNav1.7 (Homo sapiens (Human), UniProt Q15858)", 7.66),
]
